target.under.test: Human V1b receptor (Homo sapiens (Human), UniProt P47901)
Sequence (P47901 whole entry): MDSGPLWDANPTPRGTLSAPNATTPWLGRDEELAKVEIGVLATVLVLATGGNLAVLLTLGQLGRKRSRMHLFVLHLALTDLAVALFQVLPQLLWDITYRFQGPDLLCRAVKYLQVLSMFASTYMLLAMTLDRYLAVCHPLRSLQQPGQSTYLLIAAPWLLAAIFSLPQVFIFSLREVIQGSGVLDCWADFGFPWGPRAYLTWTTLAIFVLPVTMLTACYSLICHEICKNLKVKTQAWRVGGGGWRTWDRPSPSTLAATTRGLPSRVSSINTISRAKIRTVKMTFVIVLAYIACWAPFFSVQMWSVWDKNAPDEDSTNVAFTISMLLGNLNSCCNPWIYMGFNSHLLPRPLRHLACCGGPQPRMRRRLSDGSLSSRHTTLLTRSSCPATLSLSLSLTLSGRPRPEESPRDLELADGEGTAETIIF
experiment: Binding Test for V1b Receptor ([3H]AVP, crude membrane preparation of 293FT cells)
measurement.setup: inhibition of [3H]AVP binding (0.4 to 1 nmol/L), room temperature, 60 minutes

chemical.string	IC50
CC(C)NC(=O)Cc1nn(-c2ccc(CCN3CCC(F)(F)CC3)cc2)c(=O)n1-c1cccc(Cl)c1	0.01 to 0.1 µM
CC(C)NC(=O)Cn1nc(-c2ccc(CCN3CCOCC3)cc2)cc1-c1cccc(Cl)c1	0.0071 µM
CC1CCN(CCc2ccc(-n3nc(CC(=O)NC(C)C)n(-c4cccc(Cl)c4)c3=O)cc2)CC1	0.1 to 1 µM

Numbers sourced from patent US9522914B2.
